Reference for the values: PubChem BioAssay AID624129

# Target Under Test: Apelin receptor (Homo sapiens) (UniProt P35414)
# Measurement Description: potency against CXCR6 with APJ panel – cell-based, beta-arrestin, DiscoveRx, uHTS hits, dose response (AID 624129)
# Assay Context: CXCR6 beta-arrestin (DiscoveRx) antagonist cell assay, APJ, run 3, dose range 1
For each entry below, report its pIC50 value.
Answers are plain numbers, as −log10 of the molar value.

Example entries and their recorded answers appear below.
O=C(C#Cc1ccccc1)c1ccco1 : 4.89
COc1ccc(C)c(-n2c(=O)n(Cc3ccccc3)c(=O)c3[nH]cnc32)c1 : 5.00
CN(c1ccccc1)S(=O)(=O)c1ccc(NC(=O)c2nc(S(C)(=O)=O)ncc2Cl)cc1 : 5.10
O=S(=O)(Nc1cccc2cccnc12)c1ccccc1 : 4.90
Cc1ccc2c(c1)C1CN(C)CCC1N2C(=S)NC(=O)c1ccc(Br)cc1 (configuration not stated) : 4.91
CC(=O)Nc1ccc(Sc2ccc([N+](=O)[O-])o2)cc1 : 4.87

// next item, pIC50 requested
Returns the measured pIC50 for the input compound. Input: C=C1C(=O)C23C(O)C1CCC2C12CCCC(C)(COC(C)=O)C1C(O)C3(O)OC2 (configuration not stated)
5.02

* * *

# Target Under Test: Apelin receptor (Homo sapiens) (UniProt P35414)
# Measurement Description: potency against CXCR6 with APJ panel – cell-based, beta-arrestin, DiscoveRx, uHTS hits, dose response (AID 624129)
# Assay Context: CXCR6 beta-arrestin (DiscoveRx) antagonist cell assay, APJ, run 3, dose range 1
Recorded Endpoint: IC50 (µM)
Give bare numbers, in µM.

COc1ccc(C[C@@H]2OC3(C=CC(=O)C=C3)O[C@H]2Cc2ccc(OC)cc2)cc1 : 6.14

// next item, IC50 requested
Returns the measured IC50 for the input compound. Input: Cc1cccnc1Nc1nc(-c2ccccn2)cs1
1.13
